Where these numbers come from: patent US7879893B2

quantityName: melting point

[ask] Requested field: melting point. Item: O=C1NC(=O)/C(=C/c2c(Cl)cccc2Cl)S1
[reply] 152 to 154 °C

[ask] Which melting point is listed for Cc1cccc(C)c1/C=C1\SC(=O)NC1=O ?
[reply] 104 to 105 °C

[ask] So what does the record say about melting point for COc1cccc(OC)c1/C=C1\SC(=O)NC1=O ?
[reply] 241 to 242 °C

[ask] Please give the measured melting point for this molecule: CC(/C=C1\SC(=O)NC1=O)=C\c1ccccc1
[reply] 203 to 210 °C

[ask] Quick one: melting point for c1cc(COc2ccc3ccccc3c2)cc(-c2nnn[nH]2)c1 ?
[reply] 200 to 202 °C

---
[ask] Which value of melting point has been reported for COc1cc(/C=C2\SC(=O)NC2=O)cc(I)c1O in the records?
[reply] 256 °C

----------
Entries and their melting point values follow.

Recorded melting point, per entry:
[ask] Quick one: melting point of O=C1NC(=O)/C(=C/C(Cl)=C/c2ccccc2)S1 ?
[reply] 251 to 254 °C

[ask] Give the measured melting point of O=C1NC(=O)/C(=C/c2cc3ccccc3[nH]c2=O)S1 .
[reply] 338 to 347 °C

[ask] Given the entry COc1cc(O)cc(OC)c1/C=C1\SC(=O)NC1=O , report its measured melting point.
[reply] 331 to 333 °C

[ask] Entry CN(C)c1ccc(/C=C/C=C2\SC(=O)NC2=O)cc1 has what melting point?
[reply] 259 to 263 °C

Others:
[ask] Need melting point, item O=C1NC(=O)C(=Cc2c[nH]c3ccc([N+](=O)[O-])cc23)S1
[reply] 330 to 333 °C

[ask] Look up melting point: O=C1NC(=O)/C(=C/c2cc3ccccc3o2)S1
[reply] 265 to 266 °C

[ask] Recorded melting point for O=C1NC(=O)/C(=C/c2ccc3cc(O)ccc3c2)S1 , please?
[reply] 310 to 314 °C
